Here, each record is paired with measured OD450 data.
target: BSA (UniProt P02769); experiment: scFv ELISA
Sequence (P02769 25-607 limits assumed): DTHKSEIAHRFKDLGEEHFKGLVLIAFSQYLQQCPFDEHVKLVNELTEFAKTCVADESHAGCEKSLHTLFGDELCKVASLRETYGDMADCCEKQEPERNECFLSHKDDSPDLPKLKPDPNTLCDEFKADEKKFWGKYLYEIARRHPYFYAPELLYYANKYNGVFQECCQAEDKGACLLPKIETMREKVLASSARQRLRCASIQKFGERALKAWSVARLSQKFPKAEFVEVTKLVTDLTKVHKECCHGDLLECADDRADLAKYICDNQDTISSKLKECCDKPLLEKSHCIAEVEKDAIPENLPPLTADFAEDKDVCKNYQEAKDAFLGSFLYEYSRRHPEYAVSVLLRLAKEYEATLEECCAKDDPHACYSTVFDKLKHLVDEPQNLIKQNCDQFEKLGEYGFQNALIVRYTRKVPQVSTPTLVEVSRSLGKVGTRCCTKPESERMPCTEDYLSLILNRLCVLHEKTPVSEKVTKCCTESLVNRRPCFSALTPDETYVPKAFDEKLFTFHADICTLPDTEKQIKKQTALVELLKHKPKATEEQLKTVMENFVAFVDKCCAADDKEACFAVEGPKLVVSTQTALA
Report as a plain number; the unit OD450 is understood.

Here's what some known entries look like.
Binder	Test Value
PcOxP_DB04_C03 (scFv, V domains shown, scFv in periplasmic extract) VH: EVQLLESGGGLVQPGGSLRLSCAASGFTTSDFYMEWVRQAPGKGLEWVAASRNKANSYTTEYADSVKGRFTISRDNSKNTLYLQMNSLRAEDTAVYYCARDYYGSSYWYFDVWGQGTLVTVSS VL: DIQMTQSPSSLSASVGDRVTITCTASESLYSSKHKVHYLAWYQQKPGKAPKLLIYGASSLYSGVPSRFSGSGSGTDFTLTISSLQPEDFATYYCAQFYEYPLTFGGGTKVEIK	0.1
PcOxP_DB04_E08 (scFv, V domains shown, scFv in periplasmic extract) VH: EVQLLESGGGLVQPGGSLRLSCAASGFTSSDFYLEWVRQAPGKGLEWVAASRNKWNDYTTEYADSVKGRFTISRDNSKNTLYLQMNSLRAEDTAVYYCARDYYGSSYWYFDVWGQGTLVTVSS VL: DIVMTQSPDSLAVSLGERATINCTASESLYSSKHKVHYLAWYQQKPGQPPKLLIYGVSNRYIGVPDRFSGSGSGTDFTLTISSLQAEDVAVYYCAQFYSYPLTFGGGTKVEIK	0.09
PcOxP_DB01_H02 (scFv, V domains shown, scFv in periplasmic extract) VH: EVQLLESGGGLVQPGGSLRLSCAASGFTFSSYYMEWVRQAPGKGLEWVAASRNKANDYTTEYADSVKGRFTISRDNSKNTLYLQMNSLRAEDTAVYYCARDYYGSSYWYFDVWGQGTLVTVSS VL: DIVMTQSPDSLAVSLGERATINCTASSSLYSSKHKVHYLAWYQQKPGQPPKLLIYGASNRYIGVPDRFSGSGSGTDFTLTISSLQAEDVAVYYCAQFYSYPLTFGGGTKVEIK	0.1
PcOxP_DB01_D01 (scFv, V domains shown, scFv in periplasmic extract) VH: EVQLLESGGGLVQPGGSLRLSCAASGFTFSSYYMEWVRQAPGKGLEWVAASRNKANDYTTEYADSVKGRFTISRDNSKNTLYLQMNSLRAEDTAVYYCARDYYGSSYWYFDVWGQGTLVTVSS VL: DIVMTQSPDSLAVSLGERATINCTASESLYSPKHKVHYLAWYQQKPGQPPKLLIYGASNRYIGVPDRFSGSGSGTDFTLTISSLQAEDVAVYYCAQFYIYPLTFGGGTKVEIK	0.06

The record that follows has no OD450 shown yet.
INPUT: Form field: reported OD450 of PcOxP_DB03_G06 (scFv, V domains shown, scFv in periplasmic extract) VH: EVQLLESGGGLVQPGGSLRLSCAASGFTFSDFYMEWVRQAPGKGLEWVAASRNKANDYTTEYADSVKGRFTISRDNSKNTLYLQMNSLRAEDTAVYYCARDYYGSSYWYFDVWGQGTLVTVSS VL: DIQMTQSPSSLSASVGDRVTITCTASESLYSSKHKVHYLAWYQQKPGKAPKLLIYGASNRYIGVPSRFSGSGSGTDFTLTISSLQPEDFATYYCAQFYEYPLTFGGGTKVEIK
OUTPUT: 0.1
